The reader will find reported EC50 values listed item by item below.
systemName: GABA-B receptor (Rattus norvegicus (Rat), UniProt O88871+Q9Z0U4)
Sequence (Q9Z0U4 17-960): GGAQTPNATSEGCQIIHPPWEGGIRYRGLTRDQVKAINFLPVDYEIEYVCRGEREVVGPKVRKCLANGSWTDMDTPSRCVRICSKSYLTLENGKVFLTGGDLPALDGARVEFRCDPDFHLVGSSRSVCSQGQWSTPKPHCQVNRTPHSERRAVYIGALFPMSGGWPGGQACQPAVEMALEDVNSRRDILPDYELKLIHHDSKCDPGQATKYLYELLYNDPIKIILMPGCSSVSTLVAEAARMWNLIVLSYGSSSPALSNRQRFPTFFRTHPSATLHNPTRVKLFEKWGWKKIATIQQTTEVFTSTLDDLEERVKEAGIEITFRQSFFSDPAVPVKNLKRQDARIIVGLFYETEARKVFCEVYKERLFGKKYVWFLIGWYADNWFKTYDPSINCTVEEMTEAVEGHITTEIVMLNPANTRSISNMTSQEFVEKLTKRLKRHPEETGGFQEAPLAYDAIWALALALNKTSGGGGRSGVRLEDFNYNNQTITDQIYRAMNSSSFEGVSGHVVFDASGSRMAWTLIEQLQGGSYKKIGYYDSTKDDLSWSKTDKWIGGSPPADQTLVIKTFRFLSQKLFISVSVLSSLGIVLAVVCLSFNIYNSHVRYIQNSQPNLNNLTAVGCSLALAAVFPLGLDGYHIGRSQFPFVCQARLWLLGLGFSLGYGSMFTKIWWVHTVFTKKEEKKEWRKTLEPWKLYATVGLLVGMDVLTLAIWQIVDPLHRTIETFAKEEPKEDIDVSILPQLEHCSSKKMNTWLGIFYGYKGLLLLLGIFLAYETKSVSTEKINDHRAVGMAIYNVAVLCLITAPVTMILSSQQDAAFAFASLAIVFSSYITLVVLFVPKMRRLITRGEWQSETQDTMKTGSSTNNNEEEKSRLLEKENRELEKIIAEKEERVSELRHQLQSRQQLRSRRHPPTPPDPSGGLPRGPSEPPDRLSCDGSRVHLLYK
Sequence (O88871 41-940): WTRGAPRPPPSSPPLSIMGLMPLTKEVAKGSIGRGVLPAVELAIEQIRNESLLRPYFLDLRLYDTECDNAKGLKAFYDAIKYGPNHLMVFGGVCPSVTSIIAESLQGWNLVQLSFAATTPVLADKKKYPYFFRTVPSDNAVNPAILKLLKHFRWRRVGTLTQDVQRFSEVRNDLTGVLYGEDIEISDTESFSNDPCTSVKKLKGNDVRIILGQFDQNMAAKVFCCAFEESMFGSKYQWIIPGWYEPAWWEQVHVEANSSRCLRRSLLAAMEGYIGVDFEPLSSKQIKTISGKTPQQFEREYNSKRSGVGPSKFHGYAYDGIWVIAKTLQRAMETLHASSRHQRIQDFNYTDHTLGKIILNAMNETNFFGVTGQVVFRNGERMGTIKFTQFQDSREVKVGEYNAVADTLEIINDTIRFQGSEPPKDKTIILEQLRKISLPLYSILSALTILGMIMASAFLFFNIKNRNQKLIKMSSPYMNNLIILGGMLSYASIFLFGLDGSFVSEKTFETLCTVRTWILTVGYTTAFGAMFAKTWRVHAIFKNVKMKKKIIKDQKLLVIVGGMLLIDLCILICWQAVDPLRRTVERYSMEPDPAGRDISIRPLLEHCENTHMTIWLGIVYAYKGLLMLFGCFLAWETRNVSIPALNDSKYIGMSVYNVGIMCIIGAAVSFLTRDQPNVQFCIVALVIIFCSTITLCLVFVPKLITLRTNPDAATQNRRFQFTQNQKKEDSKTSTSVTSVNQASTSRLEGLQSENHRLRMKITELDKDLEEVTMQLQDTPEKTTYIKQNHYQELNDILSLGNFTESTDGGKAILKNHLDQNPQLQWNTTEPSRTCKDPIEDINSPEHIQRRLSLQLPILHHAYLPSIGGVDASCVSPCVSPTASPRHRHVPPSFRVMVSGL
testDescription: [35S]GTPgS binding assay, rat cortical membranes, in presence of EC25 GABA
protocolConditions: rat brain cortex membranes; in presence of 1 μM GABA (EC25); positive allosteric modulation
Method: Preparation of Rat Brain Membranes for Native Receptor Assays Membranes from rat brain cortex were prepared as described in detail by Olpe et al. and stored at concentrations of 1.66 mg/mL protein at −80° C. until required. (Olpe, H.-R, et al. Eur J Pharmacol 1990; 187: 27-38). [^35S] GTPgS Binding Assay […]

Take a look at these entries with their results.
1) Cc1cc(N2CC3(CCOCC3)C2)n2nc(C(C)c3ccc(Cl)cc3)cc2n1 (centres unmarked) [Example 2-13]
446 nM
2) Cc1cc(NC(C)(C)C)n2nc(C(C)c3ccc(Cl)cc3)cc2n1 (centres unmarked) [Example 2-8]
71 nM
3) Cc1cc(N2CC3(CCOCC3)C2)n2nc(C(C)c3ccc(C(F)(F)F)cc3)cc2n1 (centres unmarked) [Example 8-4]
827 nM
4) CC(=O)N[C@@H]1CCN(c2cc(C)nc3cc(C(C)c4ccc(C(F)(F)F)cc4)nn23)C1 (some centres unmarked) [Example 8-16]
2180 nM
5) CCC(c1ccc(Cl)cc1)c1cc2nc(C)cc(N3CCCCC3CCO)n2n1 (centres unmarked) [Example 3-1]
8 nM

Query :: Observed EC50 on GABA-B receptor (Rattus norvegicus (Rat), UniProt O88871+Q9Z0U4) for Cc1cc(N2CCC3(COC3)C2)n2nc(C(C)c3ccc(C(F)(F)F)cc3)cc2n1 (centres unmarked) [Example 8-3] , please.
Result :: 420 nM

Query :: Observed EC50 on GABA-B receptor (Rattus norvegicus (Rat), UniProt O88871+Q9Z0U4) for Cc1cc(NCC(F)(F)F)n2nc(Cc3ccc(Cl)cc3)cc2n1 [Example 1-16] , please.
Result :: > 10000 nM

Query :: Observed EC50 on GABA-B receptor (Rattus norvegicus (Rat), UniProt O88871+Q9Z0U4) for Cc1cc(N2CCCCC2CCO)n2nc(C(c3ccc(Cl)cc3)C(C)C)cc2n1 (centres unmarked) [Example 4-1] , please.
Result :: 5 nM

---

systemName: GABA-B receptor (Rattus norvegicus (Rat), UniProt O88871+Q9Z0U4)
testDescription: [35S]GTPgS binding assay, rat cortical membranes, in presence of EC25 GABA
protocolConditions: rat brain cortex membranes; in presence of 1 μM GABA (EC25); positive allosteric modulation
The reader will find reported pEC50 values listed item by item below.
Scale explanation: pEC50 corresponds to minus log10 of a concentration expressed in moles per litre.

Take a look at these entries with their results.
1) CCC(c1ccc(Cl)cc1)c1cc2nc(C)cc(N3CCCC(F)(F)C3)n2n1 (centres unmarked) [Example 3-2]
7.85
2) Cc1cc(N2CCCCC2CCO)n2nc(Cc3cccc(Cl)c3)cc2n1 (centres unmarked) [Example 12-1]
5.25
3) Cc1cc(N2CCC[C@H](CO)C2)n2nc(Cc3ccc(Cl)cc3)cc2n1 [Example 1-8]
5.89
4) Cc1cc(NCC2CC(F)(F)C2)n2nc(C(C)c3ccc(C(F)(F)F)cc3)cc2n1 (centres unmarked) [Example 8-14]
6.23
5) CC(=O)N[C@H]1CCN(c2cc(C)nc3cc(C(C)c4ccc(Cl)cc4)nn23)C1 (some centres unmarked) [Example 2-17]
5.66

Query :: Item Cc1cc(N[C@H]2C[C@@H](O)C2)n2nc(C(C)c3ccc(Cl)cc3)cc2n1 (relative stereo) [Example 2-18] has what recorded pEC50?
Result :: 6.30

Query :: Item Cc1cc(NC2(C)CC2)n2nc(C(C)c3ccc(C(F)(F)F)cc3)cc2n1 (centres unmarked) [Example 8-8] has what recorded pEC50?
Result :: 6.13

---

systemName: GABA-B receptor (Rattus norvegicus (Rat), UniProt O88871+Q9Z0U4)
testDescription: [35S]GTPgS binding assay, rat cortical membranes, in presence of EC25 GABA
protocolConditions: rat brain cortex membranes; in presence of 1 μM GABA (EC25); positive allosteric modulation
Procedure: Preparation of Rat Brain Membranes for Native Receptor Assays Membranes from rat brain cortex were prepared as described in detail by Olpe et al. and stored at concentrations of 1.66 mg/mL protein at −80° C. until required. (Olpe, H.-R, et al. Eur J Pharmacol 1990; 187: 27-38). [^35S] GTPgS Binding Assay […]
The label is t for EC50 below 1000 nM and f for EC50 equal to or exceeding 1000 nM.

See these solved cases before continuing.
1. Cc1cc(NC2(C(F)(F)F)CC2)n2nc(Cc3ccc(Cl)cc3)cc2n1
f
2. CC[C@@H]1CCCCN1c1cc(C)nc2cc(C(C)c3ccc(Cl)cc3)nn12 (stereo partly drawn)
t
3. Cc1cc(NCC2CC(F)(F)C2)n2nc(C(C)c3ccc(Cl)cc3)cc2n1 (stereo not drawn)
t
4. Cc1cc(NC(C)(C)C)n2nc(C(C)c3ccc(Cl)cn3)cc2n1 (stereo not drawn)
t
5. Cc1cc(N2CC[C@H]2C(=O)O)n2nc(C(C)c3ccc(C(F)(F)F)cc3)cc2n1 (stereo partly drawn)
f

Query :: Lab note: confirm whether the reported EC50 for this molecule is below 1000 nM, equality not counting. molecule: "Cc1cc(N2CCCC2)n2nc(Cc3ccc(Cl)cc3)cc2n1"
Result :: f

Query :: Lab note: confirm whether the reported EC50 for this molecule is below 1000 nM, equality not counting. molecule: Cc1cc(N2CCCC(F)(F)C2)n2nc(C(C)c3ccc(C(F)(F)F)cc3)cc2n1 (stereo not drawn)
Result :: t

---

systemName: GABA-B receptor (Rattus norvegicus (Rat), UniProt O88871+Q9Z0U4)
testDescription: [35S]GTPgS binding assay, rat cortical membranes, in presence of EC25 GABA
protocolConditions: rat brain cortex membranes; in presence of 1 μM GABA (EC25); positive allosteric modulation
readout: pEC50
Scale explanation: pEC50 corresponds to minus log10 of a concentration expressed in moles per litre.

Take a look at these entries with their results.
1) Cc1cc(N2CCNC(=O)C2CCO)n2nc(C(C)c3ccc(C(F)(F)F)cc3)cc2n1 (stereo not shown) [Example 8-13]
5.59
2) Cc1cc(N2CCCCC2)n2nc(Cc3ccc(Cl)cc3)cc2n1 [Example 1-9]
5.59
3) Cc1cc(NC2CC(F)(F)C2)n2nc(C(C)c3ccc(Cl)cn3)cc2n1 (stereo not shown) [Example 9-2]
5.80

Query :: Item CC[C@@H]1CN(c2cc(C)nc3cc(C(C)c4ccc(Cl)cc4)nn23)[C@H]1C(=O)O (stereo partly shown) [Example 2-15] has what recorded pEC50?
Result :: 5.41

---

systemName: GABA-B receptor (Rattus norvegicus (Rat), UniProt O88871+Q9Z0U4)
testDescription: [35S]GTPgS binding assay, rat cortical membranes, in presence of EC25 GABA
Assay type: biochemical
protocolConditions: rat brain cortex membranes; in presence of 1 μM GABA (EC25); positive allosteric modulation
The label is 1 for EC50 below 400 nM and -1 for EC50 equal to or exceeding 400 nM.

See these solved cases before continuing.
1) Cc1cc(N2CC[C@@H](NS(C)(=O)=O)C2)n2nc(Cc3ccc(Cl)cc3)cc2n1
-1
2) Cc1cc(NC2(C)CC2)n2nc(Cc3ccc(Cl)cc3)cc2n1
-1
3) Cc1cc(N2CCC(F)(F)C2)n2nc(C(C)c3ccc(Cl)cn3)cc2n1 (stereo not drawn)
-1
4) Cc1cc(N2CCC2)n2nc(Cc3ccc(Cl)cc3)cc2n1
-1
5) Cc1cc(NC2CC(F)(F)C2)n2nc(C(C)c3ccc(C(F)(F)F)cc3)cc2n1 (stereo not drawn)
-1
6) CC(=O)N[C@H]1CCN(c2cc(C)nc3cc(C(C)c4ccc(Cl)cn4)nn23)C1 (stereo partly drawn)
-1
7) CCCC(c1ccc(Cl)cc1)c1cc2nc(C)cc(N3CCCCC3CCO)n2n1 (stereo not drawn)
1

Shift focus to the following entry.
Query :: Lab note: confirm whether the reported EC50 for this molecule is below 400 nM, equality not counting. molecule: Cc1cc(N2CCCC(F)(F)C2)n2nc(C(C)c3ccc(Cl)cc3)cc2n1 (stereo not drawn)
Result :: 1

---

systemName: GABA-B receptor (Rattus norvegicus (Rat), UniProt O88871+Q9Z0U4)
testDescription: [35S]GTPgS binding assay, rat cortical membranes, in presence of EC25 GABA
protocolConditions: rat brain cortex membranes; in presence of 1 μM GABA (EC25); positive allosteric modulation
Method: Preparation of Rat Brain Membranes for Native Receptor Assays Membranes from rat brain cortex were prepared as described in detail by Olpe et al. and stored at concentrations of 1.66 mg/mL protein at −80° C. until required. (Olpe, H.-R, et al. Eur J Pharmacol 1990; 187: 27-38). [^35S] GTPgS Binding Assay […]
readout: pEC50
Scale explanation: pEC50 corresponds to minus log10 of a concentration expressed in moles per litre.

1) Cc1cc(N2CCC(F)(F)C2)n2nc(C(C)c3ccc(C(F)(F)F)cc3)cc2n1 (stereo not drawn)
6.24
2) Cc1cc(NC2CC(F)C2)n2nc(C(C)c3ccc(Cl)cn3)cc2n1 (stereo not drawn)
5.03

We next turn to a different compound, shown below.
Query :: Item Cc1cc(N2CCCCC2=O)n2nc(C(C)c3ccc(C(F)(F)F)cc3)cc2n1 (stereo not drawn) has what recorded pEC50?
Result :: 6.13

Origin of values: patent US9828381B2
